Where these numbers come from: patent US20220195070A1

- tested target: T1, anti-DENV E protein antibody comprising a modified IgG heavy chain constant region (SEQ ID NO: 116)
- T1 construct: also called anti-DENY E protein antibody; Fc-Mutated Antibody
- T1 sequence (constant, as listed by the source limits assumed): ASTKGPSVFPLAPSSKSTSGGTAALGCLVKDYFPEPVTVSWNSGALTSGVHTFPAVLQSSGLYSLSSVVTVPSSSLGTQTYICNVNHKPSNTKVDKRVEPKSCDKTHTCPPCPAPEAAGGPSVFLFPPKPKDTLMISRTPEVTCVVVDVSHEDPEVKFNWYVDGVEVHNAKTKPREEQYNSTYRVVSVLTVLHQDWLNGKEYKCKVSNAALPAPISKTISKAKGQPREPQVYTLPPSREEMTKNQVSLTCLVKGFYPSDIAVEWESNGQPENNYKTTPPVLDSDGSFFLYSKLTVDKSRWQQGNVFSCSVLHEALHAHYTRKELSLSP
- measurement description: SPR (Biacore T200), 25 C, pH 7.4; SKA antibody captured by anti-rabbit IgG, anti-DENV E protein antibody injected 0-400 nM
measurement kind: koff (s⁻¹)
Answers are plain numbers, in s⁻¹.

Consider the following illustrative entries.
>  <binder>
SKA0171 (antibody, V domains shown, Recombinant rabbit monoclonal from B-cell cloning, expressed in FreeStyle 293-F cells; the first screen used B-cell culture supernatant; also called Anti-SG115 Antibody; rabbit Anti Fc-Mutation Antibody) VH: QSLEESGGGLVQPEGSLTLSCTASGFSFSSSYYMCWVRQAPGKGLEWIACIYGGNSVITYYANWAKGRFTISETSSTTVTLQMTSLTAADTATYFCAREVHYDYLYTTYGYANLWGPGTLVTVSS VL: AIKMTQTPASVSAVVGGTVTINCQASETIYSGLAWYQQKPGQPPKLLIYDTANLETGVSSRFKGSGSGTEYTLTISDLECDDAATYFCLYAYYSGGSADNAFGGGTEVVVKG

>  <koff, s⁻¹>
0.00149

$$$$
>  <binder>
SKA0027 (antibody, V domains shown, Recombinant rabbit monoclonal from B-cell cloning, expressed in FreeStyle 293-F cells; the first screen used B-cell culture supernatant; also called Anti-SG115 Antibody; rabbit Anti Fc-Mutation Antibody) VH: QEQLVESGGGLVQPEGSLTLTCTASGFSFSSSDYMCWVRQAPGKGLEWIGCIYTGSGSTYYASWAKGRFTISKTSSTTVTLQMTSLTAADTATFFCARRGDSYSNYSFKLWGPGTLVTVSS VL: AFELTQTPASVEAAVGGTVTIKCQASQNIYSNLAWYQQKPGQPPKLLIYTASSLASGVSSRFKGSGSGTEFTLTISDLECDDAATYYCQCTYINNGYGNTFGGGTEVVVKG

>  <koff, s⁻¹>
0.000191

$$$$
>  <binder>
SKA0028 (antibody, V domains shown, Recombinant rabbit monoclonal from B-cell cloning, expressed in FreeStyle 293-F cells; the first screen used B-cell culture supernatant; also called Anti-SG115 Antibody; rabbit Anti Fc-Mutation Antibody) VH: QSVEESGGRLVTPGTPLTLTCTASGFTISSYHMSWVRQAPGKGLEWIGIIHGSGNMWYASWAKGRFTISRTSTTVDLEITSPTTEDTATYFCARIRFWASSNYYYFYLWGQGTLVTVSS VL: ALVMTQTPASVSEPVGGTVTINCQASQNIYSNLAWYQQKPGQRPRLLIYGASNLESGVPSRFRGSGSGTEFTLTISDLECADAATYYCQSAYWGNNNDGAFGGGTEVVVKG

>  <koff, s⁻¹>
7.27e-05

$$$$

Find the measured koff of SKA0141 (antibody, V domains shown, Recombinant rabbit monoclonal from B-cell cloning, expressed in FreeStyle 293-F cells; the first screen used B-cell culture supernatant; also called Anti-SG115 Antibody; rabbit Anti Fc-Mutation Antibody) VH: QSLEESGGDLVKPGASLTLTCTASGFSFSSSYYMCWVRQAPGKGLEWIACIYAGSSGSTYYASWAKGRFTISKTSSTTVTLQMTSLTAADTATYFCARDGDENMLVGGYFNLWGPGTLVTVSS VL: ALVMTQTPSSVSAAVGGTVTINCQASHNIYSNLAWYQQKPGQRPKLLIYGASNLESGVPSRFKGSGSGTEYTLTISDLECDDAATYYCQSAYYSSNAGYNAFGGGTEVVVKG and report it.
0.00135
